Molecular target: Glucocorticoid receptor (Homo sapiens, UniProt P04150)
Sequence (P04150 whole entry): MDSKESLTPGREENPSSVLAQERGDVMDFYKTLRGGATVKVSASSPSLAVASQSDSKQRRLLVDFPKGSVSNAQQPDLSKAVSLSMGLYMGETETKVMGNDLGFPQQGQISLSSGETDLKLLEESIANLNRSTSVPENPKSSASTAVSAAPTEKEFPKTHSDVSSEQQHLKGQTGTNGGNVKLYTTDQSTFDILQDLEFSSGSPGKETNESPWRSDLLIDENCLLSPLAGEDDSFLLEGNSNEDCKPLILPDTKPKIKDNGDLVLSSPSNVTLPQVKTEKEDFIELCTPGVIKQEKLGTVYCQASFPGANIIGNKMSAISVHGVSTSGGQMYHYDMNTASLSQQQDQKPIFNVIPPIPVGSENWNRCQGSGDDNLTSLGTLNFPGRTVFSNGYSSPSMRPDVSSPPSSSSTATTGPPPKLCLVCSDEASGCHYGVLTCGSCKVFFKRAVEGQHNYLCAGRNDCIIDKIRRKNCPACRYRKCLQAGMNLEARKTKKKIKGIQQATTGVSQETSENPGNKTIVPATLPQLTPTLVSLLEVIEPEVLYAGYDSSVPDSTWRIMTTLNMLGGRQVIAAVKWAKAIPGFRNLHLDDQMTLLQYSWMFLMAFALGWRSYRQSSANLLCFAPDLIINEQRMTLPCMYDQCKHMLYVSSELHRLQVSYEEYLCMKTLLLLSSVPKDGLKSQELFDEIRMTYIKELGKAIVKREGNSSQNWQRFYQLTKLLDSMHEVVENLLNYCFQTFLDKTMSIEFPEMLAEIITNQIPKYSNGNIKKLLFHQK
Assay: Binding affinity to human GR
// assign Satisfied if IC50 falls strictly below 0.4 µM, else Not satisfied (ties count as Not satisfied)

Use these answered entries as a reference point.
COc1ccccc1-c1ccc2c(c1)C(C)=CC(C)(C)N2 ... Not satisfied
C=CCSCC1=CC(C)(C)Nc2ccc(-c3cccc(OC)c3)cc21 ... Not satisfied
C=CCSCC1=CC(C)(C)Nc2ccc(-c3cccc(O)c3Cl)cc21 ... Satisfied
COc1ccccc1-c1ccc2c(c1)C(CSCCc1ccccc1)=CC(C)(C)N2 ... Satisfied
C=CCSCC1=CC(C)(C)Nc2ccc(-c3ccccc3-c3ccccc3)cc21 ... Not satisfied

Below 0.4 µM on IC50? Entry "COc1ccccc1-c1ccc2c(c1)C(CSc1ccccc1)=CC(C)(C)N2" Not satisfied

Below 0.4 µM on IC50? Entry "C=CCSCC1=CC(C)(C)Nc2ccc(-c3ccc(OC)cc3)cc21" Not satisfied

Below 0.4 µM on IC50? Entry "COc1ccccc1-c1ccc2c(c1)C(CSC1CCCC1)=CC(C)(C)N2" Not satisfied

Below 0.4 µM on IC50? Entry "C=CCSCC1=CC(C)(C)Nc2ccc(-c3cccc(OCC)c3)cc21" Not satisfied

Below 0.4 µM on IC50? Entry "CNC(=O)CSCC1=CC(C)(C)Nc2ccc(-c3ccccc3OC)cc21" Not satisfied

Below 0.4 µM on IC50? Entry "C=CCSCC1=CC(C)(C)Nc2ccc(-c3ccccc3OC)cc21" Satisfied

Below 0.4 µM on IC50? Entry "C=CCSCC1=CC(C)(C)Nc2ccc(-c3c(OC)cccc3OC)cc21" Not satisfied

Below 0.4 µM on IC50? Entry "C=CCSCC1=CC(C)(C)Nc2ccc(-c3ccccc3OCC)cc21" Not satisfied

Below 0.4 µM on IC50? Entry "COc1ccccc1-c1ccc2c(c1)C(CSc1ccc(Cl)cc1)=CC(C)(C)N2" Not satisfied

----------
Target: Glucocorticoid receptor (Homo sapiens, UniProt P04150)
Assay: Binding affinity to human GR
pIC50: −log10 of the molar value.
Please provide measured pIC50 for the entries that follow.

Some solved entries appear below for comparison.
C=CCSCC1=CC(C)(C)Nc2ccc(-c3cc(OC)ccc3OC)cc21 ... < 5.70
CC1(C)C=C(CSCCc2ccccc2)c2cc(-c3cccc(O)c3Cl)ccc2N1 ... 6.66
C=CCSCC1=CC(C)(C)Nc2ccc(-c3cccc(OC)c3OC)cc21 ... < 5.70

Parameter requested: pIC50. Apply to each item below.
1. CCCSCC1=CC(C)(C)Nc2ccc(-c3ccccc3OC)cc21
2. C=CCSCC1=CC(C)(C)Nc2ccc(-c3ccccc3F)cc21
3. C=CCSCC1=CC(C)(C)Nc2ccc(-c3ccccc3C(F)(F)F)cc21
4. CCC(C)CSCC1=CC(C)(C)Nc2ccc(-c3ccccc3OC)cc21 (stereo not drawn)
5. COC(=O)CSCC1=CC(C)(C)Nc2ccc(-c3ccccc3OC)cc21

1: 5.99; 2: < 5.70; 3: < 5.70; 4: 6.52; 5: < 5.70
